Test system: TK-10 renal
Assay: NCI-60 one-dose screen, 48 h (100 = growth as untreated, 0 = no growth, -100 = all killed)
Details: 10 µM unless noted
This is part of a sample that, as a whole, favours compounds with a hit. Of some 83,000 tested, about 20% had one in any assay.
Hi there, I'd appreciate the recorded growth for every entry that follows.
Note: unit % is implicit; provide only the numeric part.

Req: For CCCCCCCCCCCCCCCCCCOc1ccccc1CC(=O)OCCC[N+](C)(C)C , what is its reported growth?
Resp: 50.1

Req: For Cc1cc(=O)oc2c1ccc1oc(C#N)c(C)c12 , what is its reported growth?
Resp: 89.2

Req: For O=Cc1c[nH]c2ccc(-c3csc4ccccc34)cc12 , what is its reported growth?
Resp: 60.6

Req: For CC(=O)C(C)Cc1cc2c(cc1C)C(C)(C)CCC2(C)C (stereo not given) , what is its reported growth?
Resp: 100

Req: For O=C(NC(Cc1nnc2n(Cc3ccccc3)c(=O)c3c4c(sc3n12)CCCC4)c1ccc(Cl)cc1)c1ccccc1 (stereo not given) , what is its reported growth?
Resp: 99

Req: For Clc1cc(Cl)cc(Nc2ccc3cc(OCCCN4CCOCC4)ccc3n2)c1 , what is its reported growth?
Resp: 47

Req: For CC/C=C\C[C@H](O)C/C=C1/C(=O)C=C[C@@H]1C/C=C\CCCCO , what is its reported growth?
Resp: 5.32

Req: For CN(C)CCC=C1c2ccccc2C(C)(C)c2ccccc21 , what is its reported growth?
Resp: 98.3

Req: For COc1cc(N=Nc2ccc(N)cc2)c(OC)cc1N=Nc1ccccc1.[Cl][Zn][Cl] , what is its reported growth?
Resp: 140

Req: For Cc1cc(/C=C\c2ccc3ccccc3[n+]2C)c(O)c2ncccc12 , what is its reported growth?
Resp: 23.2

----------
System: NCI-H23 lung
Test: NCI-60 one-dose screen, 48 h (100 = growth as untreated, 0 = no growth, -100 = all killed)
Settings: 10 µM unless noted
About 83,000 compounds went through this panel and 20% of them were active in at least one assay; those are over-represented in the sample as a whole.
Note to self: use rule met only for growth readings below 30%; a reading exactly at 30% still gets rule not met.

Req: Hello, is growth of the following compound strictly smaller than 30%? COc1cccc(Nc2nccc(Nc3ccc4[nH]ncc4c3)n2)c1
Resp: rule met

Req: Hello, is growth of the following compound strictly smaller than 30%? COC(=O)[C@]12CC[C@@H](C)[C@H](C)[C@@H]1C1=CC[C@@H]3[C@@]4(C)C(C=O)=C[C@@](C)(COC(=O)/C=C/c5ccccc5)[C@@H]4[C@H](O)C[C@@]3(C)[C@]1(C)CC2
Resp: rule met

Req: Hello, is growth of the following compound strictly smaller than 30%? Cc1ccc(C(=O)COc2cccc(/C=C3\Oc4ccccc4C3=O)c2)cc1
Resp: rule not met

Req: Hello, is growth of the following compound strictly smaller than 30%? O=Cc1c[nH]c2ccc(-c3csc4ccccc34)cc12
Resp: rule not met

Req: Hello, is growth of the following compound strictly smaller than 30%? COc1ccc(-c2nc(SCCC(C)C)nc(N/N=C\c3ccccc3O)c2C#N)cc1
Resp: rule not met

Req: Hello, is growth of the following compound strictly smaller than 30%? COc1ccccc1NC(=O)N/C(N)=N/c1nc2ccccc2s1
Resp: rule not met

Req: Hello, is growth of the following compound strictly smaller than 30%? Cc1ccc(/C=C/c2c(C(=O)/C=C/c3ccc(Cl)cc3)c(C)nc3ccccc23)cc1
Resp: rule met

Req: Hello, is growth of the following compound strictly smaller than 30%? COc1ccc2nc(NNC(=O)c3cnccn3)c3cccn3c2c1
Resp: rule met

Req: Hello, is growth of the following compound strictly smaller than 30%? CC(=O)OC1CCC2(C)C(=CC3C4CCC(=O)C4(C)CCC32)C1 (centres undefined)
Resp: rule not met
